Origin of the recorded values: PubChem BioAssay AID743102

# EC50 annotations
# measured_on: Muscarinic acetylcholine receptor M5 (Homo sapiens) (UniProt P08912)
# Sequence (P08912 whole entry, looked up): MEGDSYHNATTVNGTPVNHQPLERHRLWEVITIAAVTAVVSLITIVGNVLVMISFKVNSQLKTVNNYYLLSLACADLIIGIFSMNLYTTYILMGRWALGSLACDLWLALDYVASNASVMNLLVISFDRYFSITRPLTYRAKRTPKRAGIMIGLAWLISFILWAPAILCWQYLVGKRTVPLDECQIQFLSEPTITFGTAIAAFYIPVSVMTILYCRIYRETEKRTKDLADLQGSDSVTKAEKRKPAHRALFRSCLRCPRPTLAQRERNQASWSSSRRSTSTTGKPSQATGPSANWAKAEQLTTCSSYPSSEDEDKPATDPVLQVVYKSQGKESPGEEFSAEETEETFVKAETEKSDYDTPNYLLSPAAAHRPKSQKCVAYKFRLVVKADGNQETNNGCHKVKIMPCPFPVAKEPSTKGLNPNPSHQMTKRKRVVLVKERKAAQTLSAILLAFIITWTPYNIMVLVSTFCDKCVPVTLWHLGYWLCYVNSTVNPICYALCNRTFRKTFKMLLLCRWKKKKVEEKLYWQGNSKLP
# run_description: human M5 potentiators of ACh EC20 response – cell-based, CHO-K1 hM5, Fluo-4 calcium flux, concentration-response, confirmation (AID 743102)
# condition_details: ACh EC20 PAM

compound_structure=CCN(C(=O)C1CCN(S(=O)(=O)c2ccc3c(c2)CCC3)CC1)[C@H](C)c1ccccc1 observed_result="760 nM"
compound_structure=CCN(Cc1ccccc1)C(=O)C1CCN(S(=O)(=O)c2ccc3[nH]ncc3c2)CC1 observed_result="1660 nM"

Then this molecule:
query: Any idea what its EC50 is? The molecule is `CCN(C(=O)C1CCN(S(=O)(=O)c2ccc3occc3c2)CC1)[C@H](C)c1ccccc1`
result: 920 nM

====

# measured_on: UniProt:P08912
# run_description: human M5 potentiators of ACh EC20 response – cell-based, CHO-K1 hM5, Fluo-4 calcium flux, concentration-response, confirmation (AID 743102)
# condition_details: ACh EC20 PAM
measured_quantity: EC50

Example results:
compound_structure=CCCc1ccc(S(=O)(=O)N2CCC(C(=O)N(CC)Cc3ccccc3)CC2)cc1 measured_quantity=EC50 observed_result="3.23 µM"
compound_structure=CCN(Cc1ccccc1C#N)C(=O)C1CCN(S(=O)(=O)c2ccc3cn[nH]c3c2)CC1 measured_quantity=EC50 observed_result="7.02 µM"
compound_structure=CCN(C(=O)C1CCN(S(=O)(=O)c2ccc3[nH]ncc3c2)CC1)[C@H](C)c1ccccc1 measured_quantity=EC50 observed_result="0.77 µM"
compound_structure=O=C(C1CCN(S(=O)(=O)c2ccc3[nH]ncc3c2)CC1)N(CCF)Cc1ccccc1C(F)(F)F measured_quantity=EC50 observed_result="1.32 µM"
compound_structure=CCN(Cc1ccccc1F)C(=O)C1CCN(S(=O)(=O)c2ccc3cn[nH]c3c2)CC1 measured_quantity=EC50 observed_result="2.08 µM"

query: Any idea what its EC50 is? The molecule is `CCN(C(=O)C1CCN(S(=O)(=O)c2ccc3[nH]ncc3c2)CC1)[C@H](C)c1ccccc1C(F)(F)F`
result: 4.06 µM

query: Any idea what its EC50 is? The molecule is `CCN(Cc1cccc(Cl)c1)C(=O)C1CCN(S(=O)(=O)c2ccc3cn[nH]c3c2)CC1`
result: 1.67 µM

query: Any idea what its EC50 is? The molecule is `CCN(Cc1ccccc1OC(F)(F)F)C(=O)C1CCN(S(=O)(=O)c2ccc3cn[nH]c3c2)CC1`
result: 3.43 µM

query: Any idea what its EC50 is? The molecule is `CCN(Cc1ccccc1)C(=O)C1CCN(S(=O)(=O)c2ccc(C)s2)CC1`
result: 7.48 µM

query: Any idea what its EC50 is? The molecule is `CCN(Cc1ccccc1)C(=O)C1CCN(S(=O)(=O)c2cccc(OC)c2)CC1`
result: 3.25 µM

query: Any idea what its EC50 is? The molecule is `CCN(Cc1ccccc1Cl)C(=O)C1CCN(S(=O)(=O)c2ccc3cn[nH]c3c2)CC1`
result: 0.43 µM

query: Any idea what its EC50 is? The molecule is `CCN(Cc1ccccc1)C(=O)C1CCN(S(=O)(=O)c2ccc(C(C)=O)cc2)CC1`
result: 6.55 µM

query: Any idea what its EC50 is? The molecule is `CCN(Cc1ccccc1)C(=O)C1CCN(S(=O)(=O)c2ccc(C)cc2)CC1`
result: 5.45 µM

query: Any idea what its EC50 is? The molecule is `CCN(C(=O)C1CCN(S(=O)(=O)c2cc(F)c(F)c(F)c2)CC1)[C@H](C)c1ccccc1`
result: 2.54 µM

query: Any idea what its EC50 is? The molecule is `CCN(Cc1ccccc1)C(=O)C1CCN(S(=O)(=O)c2ccc3occc3c2)CC1`
result: 1.4 µM

query: Any idea what its EC50 is? The molecule is `CCc1ccc(S(=O)(=O)N2CCC(C(=O)N(CC)Cc3ccccc3)CC2)cc1`
result: 3.75 µM

query: Any idea what its EC50 is? The molecule is `CCN(Cc1cccc(F)c1)C(=O)C1CCN(S(=O)(=O)c2ccc3cn[nH]c3c2)CC1`
result: 1.27 µM

query: Any idea what its EC50 is? The molecule is `CCN(C(=O)C1CCN(S(=O)(=O)c2ccc(OC)cc2)CC1)[C@H](C)c1ccccc1`
result: 1.08 µM

query: Any idea what its EC50 is? The molecule is `CCN(Cc1ccccc1)C(=O)C1CCN(S(=O)(=O)c2ccc3nsnc3c2)CC1`
result: 5.23 µM
